Multiple publications report log10 of IC50 for Vasopressin V1a receptor (Homo sapiens, UniProt P37288); what follows is a combined list.
Endpoint: log10 of IC50 (log10 of the value in nM)

| Compound | Study target | Endpoint | Reported result |
| --- | --- | --- | --- |
| Cc1cc(C(=O)N2Cc3ccc(C(=O)N4CCN(C[C@@H](O)CO)CC4)n3Cc3ccccc32)ccc1-c1ccccc1C(F)(F)F | Vasopressin V1a receptor (Homo sapiens, UniProt P37288) | log10 of IC50 | 3.38 |
| CC(NC(=O)C(CC(=O)N1CCC(N2CCCCC2)CC1)N1C(=O)C(N2C(=O)OCC2c2ccccc2)C1C=Cc1cccc(Cl)c1)c1ccccc1 (stereo not shown) | Vasopressin V1a receptor (Homo sapiens, UniProt P37288) | log10 of IC50 | -0.92 |
| COC[C@@H](OC)[C@@H](OC)[C@H](OC)[C@H](CN(C)C(=O)c1ccc2n1Cc1ccccc1N(C(=O)c1cc(Cl)c(C3=CCCCC3)cc1OC)C2)OC | Vasopressin V1a receptor (Homo sapiens, UniProt P37288) | log10 of IC50 | 3.34 |
| CC1CCCC=C1c1ccc(C(=O)N2Cc3cccn3Cc3ccccc32)cc1 (stereo not shown) | Vasopressin V1a receptor (Homo sapiens, UniProt P37288) | log10 of IC50 | 1.89 |
| O=C(N[C@@H]1CCCc2ccccc21)[C@H](CCC(=O)N1CCN(C2CCCC2)CC1)N1C(=O)[C@@H](N2C(=O)OC[C@@H]2c2ccccc2)[C@H]1/C=C/c1ccccc1 | Vasopressin V1a receptor (Homo sapiens, UniProt P37288) | log10 of IC50 | 0.30 |
| COc1ccccc1-c1ccc(C(=O)N2Cc3ccc(C(=O)N4CCCN(C)CC4)n3Cc3ccccc32)cc1 | Vasopressin V1a receptor (Homo sapiens, UniProt P37288) | log10 of IC50 | 2.50 |
| COc1cc(-c2ccccc2C)c(Cl)cc1C(=O)N1Cc2ccc(C(=O)N3CCN(C)CC3)n2Cc2ccccc21 | Vasopressin V1a receptor (Homo sapiens, UniProt P37288) | log10 of IC50 | 3.00 |
| COc1ccc(S(=O)(=O)N2C(=O)C(c3cc(C)ccc3OC)(N3C[C@H](OCC(N)=O)C[C@H]3C(=O)N(C)C)c3cc(Cl)ccc32)c(OC(F)(F)F)c1 (single isomer, unassigned) | Vasopressin V1a receptor (Homo sapiens, UniProt P37288) | log10 of IC50 | 3.05 |
| CC(C)(C)OC(=O)CCC(C(=O)NCc1cccc(C(F)(F)F)c1)N1C(=O)C(N2C(=O)OCC2c2ccccc2)C1C=Cc1ccccc1 (stereo not shown) | Vasopressin V1a receptor (Homo sapiens, UniProt P37288) | log10 of IC50 | 1.54 |
| O=C(NCc1cccc(C(F)(F)F)c1)C(CCC(=O)N1CCN(CC2CCCCC2)CC1)N1C(=O)C(N2C(=O)OCC2c2ccccc2)C1C=Cc1ccccc1 (stereo not shown) | Vasopressin V1a receptor (Homo sapiens, UniProt P37288) | log10 of IC50 | -0.12 |
| C=CCN1CCN(C(=O)c2ccc3n2Cc2ccccc2N(C(=O)c2ccc(-c4ccccc4OC)cc2)C3)CC1 | Vasopressin V1a receptor (Homo sapiens, UniProt P37288) | log10 of IC50 | 2.91 |
| Cc1cc(C(=O)N2Cc3ccc(C(=O)N(C)Cc4cccnc4)n3Cc3ccccc32)ccc1-c1ccccc1C(F)(F)F | Vasopressin V1a receptor (Homo sapiens, UniProt P37288) | log10 of IC50 | 3.20 |
| O=C(C(COCc1ccccc1)N1C(=O)C(N2C(=O)OCC2c2ccccc2)C1C=Cc1ccccc1)N1CCC(CCN2CCCCC2)CC1 (stereo not shown) | Vasopressin V1a receptor (Homo sapiens, UniProt P37288) | log10 of IC50 | -0.25 |

----------
Below, pIC50 values reported for Vasopressin V1a receptor (Homo sapiens) across several publications.
pIC50: −log10 of the molar value.

| Molecule | pIC50 |
| --- | --- |
| O=C(N[C@@H]1CCCc2ccccc21)[C@H](CCC(=O)N1CCN(C2CCCCC2)CC1)N1C(=O)[C@@H](N2C(=O)OC[C@@H]2c2cccc(Cl)c2)[C@H]1/C=C/c1cccc(Cl)c1 | 9.30 |
| COc1ccc(S(=O)(=O)N2C(=O)C(c3ccccc3OC)(N3CCC[C@H]3C(=O)N(C)C)c3cc(Cl)ccc32)c(OC(F)(F)F)c1 (single isomer, unassigned) | 5.66 |
| Cc1cc(C(=O)N2Cc3ccc(C(=O)N(C)C[C@@H]4OC(=O)O[C@H]4[C@H](O)[C@H]4COC(=O)O4)n3Cc3ccccc32)ccc1-c1ccccc1C(F)(F)F | 5.79 |
| CC(C)N1CCN(C(=O)CCC(C(=O)NCc2cccc(C(F)(F)F)c2)N2C(=O)C(N3C(=O)OCC3c3ccccc3)C2C(Cl)=Cc2ccccc2)CC1 (centres unmarked) | 8.15 |
| Cc1cc(C(=O)N2Cc3ccc(C(=O)N(C)C[C@H](O)[C@H]4OC(=O)O[C@@H]4[C@H](O)CO)n3Cc3ccccc32)ccc1C1=CCCCC1 | 7.20 |
| COc1cccc(/C=C/[C@@H]2[C@H](N3C(=O)OC[C@@H]3c3ccccc3)C(=O)N2[C@@H](CCC(=O)N2CCN(C3CCCCC3)CC2)C(=O)N[C@@H]2CCCc3ccccc32)c1 | 8.66 |
| COc1ccc(S(=O)(=O)N2C(=O)C(c3cccnc3OC)(N3C[C@H](O)C[C@H]3C(=O)N(C)C)c3cc(Cl)ccc32)c(OC(F)F)c1 (single isomer, unassigned) | 7.19 |
| COc1ccccc1-c1ccc(C(=O)N2Cc3ccc(C(=O)N4CCC(N5CCCCC5)CC4)n3Cc3ccccc32)cc1 | 6.34 |
| CCCCN1CCN(C(=O)C(C(=O)NCc2cccc(C(F)(F)F)c2)N2C(=O)C(N3C(=O)OCC3c3ccccc3)C2C=Cc2ccccc2)CC1 (centres unmarked) | 7.96 |
| COC[C@H](O)CN1CCN(C(=O)c2ccc3n2Cc2ccccc2N(C(=O)c2ccc(-c4ccccc4C(F)(F)F)c(C)c2)C3)CC1 | 5.71 |
| COc1cc(C2=CCCCC2)c(Cl)cc1C(=O)N1Cc2ccc(C(=O)N(C)Cc3cccnc3)n2Cc2ccccc21 | 5.96 |
